System: Chilo suppressalis
assayNotes: Insecticidal activity against Chilo suppressalis, spraying of rice seedlings
Type: in vivo
runConditions: 72 h, 2.5 mg/L, 3rd instar larvae, 3 days after administration
valueType: mortality at 2.5 µg/mL (%)

CCN1OC[C@@H](N(C(=O)COC)C(=O)c2ccc(C3=NOC(c4cc(Cl)cc(Cl)c4)(C(F)(F)F)C3)cc2C)C1=O (mixture of isomers)	100
CCOCC(=O)N(C(=O)c1ccc(C2=NOC(c3cc(Cl)cc(Cl)c3)(C(F)(F)F)C2)cc1C)[C@@H]1CON(CC)C1=O (mixture of isomers)	100
CCN1OC[C@@H](N(C(C)=O)C(=O)c2ccc(C3=NOC(c4cc(Cl)cc(Cl)c4)(C(F)(F)F)C3)cc2C)C1=O (mixture of isomers)	100
CCN1OC[C@@H](N(C(=O)c2ccc(C3=NOC(c4cc(Cl)cc(Cl)c4)(C(F)(F)F)C3)cc2C)C(=O)C2CC2)C1=O (mixture of isomers)	100
CCN1OC[C@@H](N(C(=O)c2ccc(C3=NOC(c4cc(Cl)c(F)c(Cl)c4)(C(F)(F)F)C3)cc2C)C(=O)C2CC2)C1=O (mixture of isomers)	100
CCN1OC[C@@H](N(C(=O)OC)C(=O)c2ccc(C3=NOC(c4cc(Cl)cc(Cl)c4)(C(F)(F)F)C3)cc2C)C1=O (some centres unmarked) [Comparative compound, reference compound]	0
CCN1OC[C@@H](N(C(=O)COC)C(=O)c2ccc(C3=NOC(c4cc(Cl)c(F)c(Cl)c4)(C(F)(F)F)C3)cc2C)C1=O (mixture of isomers)	100
CCOCC(=O)N(C(=O)c1ccc(C2=NOC(c3cc(Cl)c(F)c(Cl)c3)(C(F)(F)F)C2)cc1C)[C@@H]1CON(CC)C1=O (mixture of isomers)	100

###

Tested on: Plutella xylostella
assayNotes: Insecticidal activity against Plutella xylostella, Airbrush spraying of cabbage leaf discs
Type: in vivo
runConditions: foliar, 72 h, 2.5 mg/L, 3rd instar larvae, 3 days after administration
Measured mortality at 2.5 µg/mL, listed per entry for reference.
valueType: mortality at 2.5 µg/mL (%)

CCN1OC[C@@H](N(C(=O)COC)C(=O)c2ccc(C3=NOC(c4cc(Cl)c(F)c(Cl)c4)(C(F)(F)F)C3)cc2C)C1=O (mixture of isomers)	86.7
CCN1OC[C@@H](N(C(=O)c2ccc(C3=NOC(c4cc(Cl)c(F)c(Cl)c4)(C(F)(F)F)C3)cc2C)C(=O)C2CC2)C1=O (mixture of isomers)	83.3
CCOCC(=O)N(C(=O)c1ccc(C2=NOC(c3cc(Cl)c(F)c(Cl)c3)(C(F)(F)F)C2)cc1C)[C@@H]1CON(CC)C1=O (mixture of isomers)	70
